In this section we review reported IC50 values for a set of molecules.
target: B-Raf(V599E) kinase (Homo sapiens, UniProt P15056, V600E); experiment: B-Raf(V599E) kinase assay B1 (construct 1, MEK1 substrate, coupled spectrophotometric); type: biochemical
Sequence (P15056 with tags, fused parts or gaps V600E): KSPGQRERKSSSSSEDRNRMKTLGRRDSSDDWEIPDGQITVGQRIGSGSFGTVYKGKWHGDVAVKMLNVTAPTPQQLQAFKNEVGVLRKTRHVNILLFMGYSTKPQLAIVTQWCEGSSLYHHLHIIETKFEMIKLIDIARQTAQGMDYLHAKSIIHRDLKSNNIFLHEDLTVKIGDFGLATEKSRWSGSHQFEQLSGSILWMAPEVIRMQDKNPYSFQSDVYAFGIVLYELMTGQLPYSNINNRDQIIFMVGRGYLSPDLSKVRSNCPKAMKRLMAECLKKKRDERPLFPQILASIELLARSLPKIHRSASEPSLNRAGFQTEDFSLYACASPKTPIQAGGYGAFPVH
Respond with the bare value in nM.

Please review the following examples before continuing.
[[record]]
molecule = "CC(C)(C)c1cc(NC(=O)Nc2ccc(F)cc2F)n(-c2ccc3c(c2)CCC(=O)N3)n1"
meas_value = 7.2

[[record]]
molecule = "CNC(=O)C1NCCc2cc(-n3nc(C(C)(C)C)cc3NC(=O)Nc3cccc(Oc4cccnc4)c3)ccc21 (stereo not shown)"
meas_value = 11

[[record]]
molecule = "CC(C)(C)c1cc(NC(=O)Nc2cccc(Oc3cccnc3)c2)n(-c2ccc3c(c2)CC(C(N)=O)NC3)n1 (stereo not shown)"
meas_value = 17


Data point: CC(C)(C)c1cc(NC(=O)Nc2cccc(Cl)c2Cl)n(-c2ccc3c(c2)CCN(S(C)(=O)=O)C3)n1 ; IC50 = 2.9

====

Listed next: entries and their corresponding pIC50.
biological target: KDR kinase (Homo sapiens, UniProt P35968, DEL940-989/E990V); assay: KDR kinase assay K2 (as K1, 2.1 nM enzyme, 2 h pre-incubation, 1.0 mM ATP); type: biochemical; settings: Method K2; read-out: KDR Data (IC50)
Sequence (P35968 with tags, fused parts or gaps DEL940-989/E990V): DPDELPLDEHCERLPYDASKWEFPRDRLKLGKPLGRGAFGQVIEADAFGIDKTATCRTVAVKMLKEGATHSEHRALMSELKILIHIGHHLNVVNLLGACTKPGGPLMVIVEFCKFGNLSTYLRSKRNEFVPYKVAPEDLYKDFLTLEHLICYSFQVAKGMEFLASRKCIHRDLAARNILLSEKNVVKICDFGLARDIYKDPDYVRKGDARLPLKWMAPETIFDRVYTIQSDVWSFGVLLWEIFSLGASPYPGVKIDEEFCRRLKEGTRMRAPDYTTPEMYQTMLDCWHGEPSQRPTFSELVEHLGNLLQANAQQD
Quick note: pIC50 means taking -log10 of the concentration in moles per liter.

Worked cases, answers included:
[[record]]
smiles_string = "CC(C)(C)c1cc(NC(=O)Nc2cccc(Cl)c2Cl)n(-c2ccc3[nH]ccc3c2)n1"
meas_value = 6.09

[[record]]
smiles_string = "CC(C)(C)c1cc(NC(=O)Nc2cccc(Cl)c2Cl)n(-c2cccc(CC(=O)N3CCC(C(=O)O)CC3)c2)n1"
meas_value = 5.54

[[record]]
smiles_string = "CC(C)(C)c1cc(NC(=O)Nc2cccc3ccccc23)n(-c2cccc(CCO)c2)n1"
meas_value = 5.26


// sample CC(C)(C)c1cc(NC(=O)Nc2ccc(F)c(F)c2F)n(-c2ccc3[nH]c(=O)ccc3c2)n1 , its pIC50 was 6.64

====

target: UniProt Q16539; experiment: P-38 alpha kinase assay P1 (coupled spectrophotometric, 2 h pre-incubation); format: biochemical; conditions: method P1 (2 h pre-incubation); read-out: P-38 Data
Here, each record is paired with measured IC50 data.

The reported value for CC(C)(C)c1cc(NC(=O)Nc2cccc3ccccc23)n(-c2ccc3c(c2)CNCC3)n1 in terms of IC50 is 30 nM

====

This section presents molecules with their documented IC50 values.
molecular target: phosphorylated p-38-alpha kinase (Homo sapiens); test: P-38 alpha kinase assay P1 (coupled spectrophotometric, 2 h pre-incubation); type: biochemical; conditions: method P1 (2 h pre-incubation); read-out: P-38 Data
Sequence (Q16539 1-360 isoform Q16539-2): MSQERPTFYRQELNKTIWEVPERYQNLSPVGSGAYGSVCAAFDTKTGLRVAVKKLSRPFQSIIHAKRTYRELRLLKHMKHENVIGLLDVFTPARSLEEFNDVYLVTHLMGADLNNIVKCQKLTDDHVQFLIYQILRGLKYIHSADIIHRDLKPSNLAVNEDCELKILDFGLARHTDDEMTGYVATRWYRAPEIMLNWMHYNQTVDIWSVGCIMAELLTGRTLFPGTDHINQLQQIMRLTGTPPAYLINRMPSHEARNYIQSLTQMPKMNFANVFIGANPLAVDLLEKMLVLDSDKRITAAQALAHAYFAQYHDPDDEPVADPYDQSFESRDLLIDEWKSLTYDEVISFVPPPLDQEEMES
Please respond with the number in nM and leave the unit unwritten.

Solved cases (10 shown):
[[record]]
molecule = "CC(C)(C)c1cc(NC(=O)Nc2cccc(Oc3cccnc3)c2)n(-c2ccc3ncccc3c2)n1 [Example 55]"
target_or_test_system = "phosphorylated p-38-alpha kinase (Homo sapiens)"
observable = "IC50"
meas_value = 130

[[record]]
molecule = "CC(C)(C)c1cc(NC(=O)Nc2cccc(Cl)c2Cl)n(-c2cccc(C(=N)N)c2)n1 [Example 44]"
target_or_test_system = "phosphorylated p-38-alpha kinase (Homo sapiens)"
observable = "IC50"
meas_value = 70

[[record]]
molecule = "CC(C)(C)c1cc(NC(=O)Nc2cccc(Cl)c2Cl)n(-c2ccc3[nH]ccc3c2)n1 [Example 115]"
target_or_test_system = "phosphorylated p-38-alpha kinase (Homo sapiens)"
observable = "IC50"
meas_value = 490

[[record]]
molecule = "CC(C)(C)c1cc(NC(=O)Nc2cccc(Oc3cccnc3)c2)n(-c2ccc3c(c2)CC(C(N)=O)NC3)n1 (stereo not drawn) [Example 179]"
target_or_test_system = "phosphorylated p-38-alpha kinase (Homo sapiens)"
observable = "IC50"
meas_value = 96

[[record]]
molecule = "CC(C)(C)c1cc(NC(=O)Nc2ccc(F)c(F)c2F)n(-c2cc(CC(=O)NCC(O)CO)c3ccccc3c2)n1 (stereo not drawn) [Example 96]"
target_or_test_system = "phosphorylated p-38-alpha kinase (Homo sapiens)"
observable = "IC50"
meas_value = 48

[[record]]
molecule = "CC(C)(C)c1cc(NC(=O)Nc2cccc(Cl)c2Cl)n(-c2ccc3c(c2)CCNC3)n1 [Example 138]"
target_or_test_system = "phosphorylated p-38-alpha kinase (Homo sapiens)"
observable = "IC50"
meas_value = 140

[[record]]
molecule = "COc1cccc(-n2nc(C(C)(C)C)cc2NC(=O)Nc2ccc(C#N)cc2)c1 [Example 16]"
target_or_test_system = "phosphorylated p-38-alpha kinase (Homo sapiens)"
observable = "IC50"
meas_value = 1300

[[record]]
molecule = "CC(C)(C)c1cc(NC(=O)Nc2cccc(Cl)c2Cl)n(-c2ccc3c(c2)CCN(S(C)(=O)=O)C3)n1 [Example 154]"
target_or_test_system = "phosphorylated p-38-alpha kinase (Homo sapiens)"
observable = "IC50"
meas_value = 12

[[record]]
molecule = "CC(C)(C)c1cc(NC(=O)Nc2ccc(F)c(F)c2F)n(-c2cccc(C#N)c2)n1 [Example 210]"
target_or_test_system = "phosphorylated p-38-alpha kinase (Homo sapiens)"
observable = "IC50"
meas_value = 24

[[record]]
molecule = "CC(C)(C)c1cc(NC(=O)Nc2cccc(Cl)c2Cl)n(-c2cccc(C(=N)NO)c2)n1 [Example 43]"
target_or_test_system = "phosphorylated p-38-alpha kinase (Homo sapiens)"
observable = "IC50"
meas_value = 13


// IC50 lookup, molecule = O=C(O)Cc1cccc(-n2nc(-c3cccs3)cc2NC(=O)N[C@H]2CCc3ccccc32)c1 [Example 361] , result: 30

Notebook: CC(C)(C)c1cc(NC(=O)Nc2cccc(Cl)c2Cl)n(-c2cccc(CC(=O)N3CCC(C(=O)O)CC3)c2)n1 [Example 345] , IC50 read as 19

// field: IC50; key: CC(C)(C)c1cc(NC(=O)Nc2cccc(Cl)c2Cl)n(-c2cccc(CCC(=O)O)c2)n1 [Example 46] ; value = 6

In plain terms, CC1(O)CCN(C(=O)Cc2ccc(-n3nc(C(C)(C)C)cc3NC(=O)Nc3cccc(Cl)c3Cl)cc2)CC1 [Example 496] has a documented IC50 of 5

Just so you know, measured IC50 for CC(C)(C)c1cc(NC(=O)Nc2cccc(Cl)c2Cl)n(-c2cccc(CC(=O)N3CCCC(C(=O)O)C3)c2)n1 (stereo not drawn) [Example 398] came out at 26

Entry COc1ccc(-n2nc(C(C)(C)C)cc2NC(=O)Nc2cccc(F)c2F)cc1 [Example 241] , IC50 reported as 220

CC(C)(C)c1cc(NC(=O)Nc2cccc(Cl)c2Cl)n(-c2cccc(Cn3c(=O)[nH]n(-c4ccccc4)c3=O)c2)n1 [Example 273] has a reported IC50 of 34

====

Listed molecules paired with reported pIC50
Biological target: UniProt:P00519
Sequence (P00519 229-512): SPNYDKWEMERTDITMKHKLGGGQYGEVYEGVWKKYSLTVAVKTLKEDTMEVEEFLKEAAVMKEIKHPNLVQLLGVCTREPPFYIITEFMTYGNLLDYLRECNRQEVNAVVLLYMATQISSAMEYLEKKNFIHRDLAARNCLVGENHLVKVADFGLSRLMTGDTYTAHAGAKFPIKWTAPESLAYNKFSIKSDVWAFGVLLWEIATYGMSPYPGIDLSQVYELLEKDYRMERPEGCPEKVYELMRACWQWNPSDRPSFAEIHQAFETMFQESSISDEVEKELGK
Assay: Abl kinase assay A2 (as A1, 1.1 nM enzyme, 2 h pre-incubation, 0.5 mM ATP)
Assay type: biochemical
Counter-ions that a name gives are not always drawn.
To interpret pIC50, take it as minus log10 of a concentration measured in moles per litre.

Take a look at these entries with their results.
[[record]]
molecule = "CC(C)(C)c1cc(NC(=O)Nc2cc(F)cc(C#N)c2)n(-c2ccc3c(c2)CCNC3)n1 [Example 152, hydrochloride]"
meas_value = 6.24

[[record]]
molecule = "CC(C)(C)c1cc(NC(=O)Nc2cccc(Oc3cccnc3)c2)n(-c2cc(CC(N)=O)c3ccccc3c2)n1 [Example 86, hydrochloride]"
meas_value = 9.00

[[record]]
molecule = "CC(C)(C)c1cc(NC(=O)Nc2cccc(Oc3cccnc3)c2)n(-c2ccc3c(c2)CCNC3)n1 [Example 141]"
meas_value = 8.82

[[record]]
molecule = "Cn1c(=O)c(-c2cccc(NC(=O)Nc3cc(C(C)(C)C)nn3-c3ccc4c(c3)CC(C(N)=O)NC4)c2)cc2cncnc21 (stereo not drawn) [Example 185, dihydrochloride]"
meas_value = 8.57

[[record]]
molecule = "CC(C)(C)c1cc(NC(=O)Nc2ccc(-c3cccc4c3CNC4=O)cc2)n(-c2ccc3c(c2)CCNC3)n1 [Example 151, hydrochloride]"
meas_value = 8.10


Now for the molecule whose pIC50 we want.
Reported pIC50 ( Cc1ccc(NC(=O)Nc2cc(C(C)(C)C)nn2-c2ccc3c(c2)CCNC3)cc1Nc1nccc(-c2cccnc2)n1 [Example 153, dihydrochloride] ) = 8.92
